# targetDesc: ATP-binding cassette sub-family B member 6 (Homo sapiens) (UniProt Q9NP58)
# Sequence (Q9NP58 whole entry, looked up): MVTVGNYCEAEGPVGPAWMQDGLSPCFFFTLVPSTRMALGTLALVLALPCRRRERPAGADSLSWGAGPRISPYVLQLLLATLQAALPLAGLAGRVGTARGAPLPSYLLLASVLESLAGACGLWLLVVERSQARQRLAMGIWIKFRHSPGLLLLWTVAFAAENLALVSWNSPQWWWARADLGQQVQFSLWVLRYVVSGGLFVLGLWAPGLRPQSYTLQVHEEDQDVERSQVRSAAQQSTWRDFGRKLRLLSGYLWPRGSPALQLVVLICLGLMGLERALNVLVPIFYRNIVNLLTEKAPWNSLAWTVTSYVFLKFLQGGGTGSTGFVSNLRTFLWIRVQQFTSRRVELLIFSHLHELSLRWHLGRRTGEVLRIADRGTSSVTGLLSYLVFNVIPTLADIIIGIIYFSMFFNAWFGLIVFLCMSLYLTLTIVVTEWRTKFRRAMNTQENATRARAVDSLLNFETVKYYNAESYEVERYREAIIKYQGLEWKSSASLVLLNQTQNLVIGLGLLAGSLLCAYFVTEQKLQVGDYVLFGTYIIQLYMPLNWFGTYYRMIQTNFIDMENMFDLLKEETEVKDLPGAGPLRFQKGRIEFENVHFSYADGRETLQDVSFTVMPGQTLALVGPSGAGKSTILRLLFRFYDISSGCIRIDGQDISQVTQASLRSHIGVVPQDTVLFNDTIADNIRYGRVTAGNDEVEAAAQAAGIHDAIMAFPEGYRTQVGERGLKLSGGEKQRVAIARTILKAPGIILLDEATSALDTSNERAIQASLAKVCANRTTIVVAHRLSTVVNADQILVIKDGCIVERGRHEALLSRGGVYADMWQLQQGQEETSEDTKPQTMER
# test: blockers of ABCB6-driven porphyrin uptake – K562-ABCB6 cells, flow cytometry, validation set, pilot screen (AID 588550);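 note: 0% = DMSO wells and 100% = benzethonium chloride 70 µM positive control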
# testSettings: K562-ABCB6 porphyrin accumulation, 1 h, at 10 µM, stronger effect = higher value
Give measured inhibition for each item. Keep answers brief.
Numbers only, in %.

>>> valuereported("CC(=O)[C@H]1CC[C@H]2[C@@H]3CCC4=CC(=O)CC[C@]4(C)[C@H]3[C@H](O)C[C@]12C")
2
>>> valuereported("O=C(Oc1ccccc1)Oc1ccc2c(c1)oc(=O)c1ccccc12")
4
>>> valuereported("C/C=C/c1ccc(OCCCCN2CC(C)CC(C)C2)c(OC)c1 (stereo not drawn)")
-10
>>> valuereported("COc1ccc(N2CCN(C(=S)NCc3ccccc3)CC2)cc1")
0
>>> valuereported("Cc1ccc(-c2nn(-c3cccc(F)c3)cc2CN2CCN(c3ccccn3)CC2)o1")
12
>>> valuereported("COc1ccc2c(c1OC)C(=O)N1C2SC[C@H]1C(=O)NC1CC(C)(C)NC(C)(C)C1 (stereo partly drawn)")
1

Could I get inhibition for every one of these entries?
1. Clc1ccc2c(c1)CCc1cccnc1C2=C1CCNCC1
2. CS(=O)(=O)c1cccc(C(=O)Oc2ccccc2)c1
3. CC(=O)c1cccc2c(O)c(C3=Nc4ccccc4C3=O)[nH]c12
4. COc1ccc2c(c1O)Cc1ccccc1C2=O
5. Cn1c(=O)c2c(ncn2CCO)n(C)c1=O
6. Cc1ccccc1C(=O)NCC(=O)O
7. Cc1cccc(Oc2coc3cc(OC(=O)c4cncc(Br)c4)ccc3c2=O)c1
8. CC(=O)c1ccc(CCCCCCCCCC(=O)O)s1

Reply:
-15
3
9
109
6
-7
103
-2

Could I get inhibition for every one of these entries?
1. C[C@]12CC[C@@H]3c4ccc(O)cc4CC[C@H]3[C@@H]1C[C@@H](O)[C@@H]2O[C@@H]1O[C@H](C(=O)O)[C@@H](O)[C@H](O)[C@H]1O
2. O=C(/C=C/c1ccc2c(c1)OCCCO2)c1ccc2ccccc2c1O
3. O=C(Nc1ncc2c(n1)CC(c1ccco1)CC2=O)c1ccco1 (stereo not drawn)
4. C=C(C)[C@@H]1CC=C(CN2CCC(N3CCC(C(=O)N4CCCC4)CC3)CC2)CC1
5. O=C(O)c1ccccc1C(=O)OCCCCOC(=O)c1ccccc1C(=O)O

Reply:
1: 8; 2: 6; 3: 1; 4: -18; 5: 2

====

# targetDesc: AP-2 complex subunit beta (Homo sapiens)
# test: beta-arrestin/AP2 interaction blockers – biochemical, validation set, GST-AP2 beads, flow cytometry, pilot screen (AID 504541);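 note: AP2 carries R879A mutation and is captured from E. coli lysate; bead-bound FITC arrestin peptide fluorescence measuring arrestin peptide binding to AP2; 0% = DMSO wells and 100% = excess unlabeled arrestin peptide control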
# testSettings: FITC arrestin peptide, at 10 µM, stronger effect = higher value, AP2 beta2 appendage fragment, R879A mutant
Give measured inhibition for each item. Keep answers brief.
Answers are plain numbers, in %.

Could I get inhibition for every one of these entries?
1. CC12COC3(C(=O)Nc4ccc(F)cc4)CC1CCC32C (centres undefined)
2. CN1CCN(CCCN2c3ccccc3Sc3ccc(Cl)cc32)CC1
3. CN1C2CCC1CC(OC(c1ccccc1)c1ccccc1)C2 (centres undefined)

Reply:
[-2.28, 0.77, -19]

Could I get inhibition for every one of these entries?
1. CS(=O)c1ccccc1O (centres undefined)
2. CC1=C(/C=C/C(C)=C/C=C/C(C)=C/C(=O)O)C(C)(C)CCC1

Reply:
1. 38.1
2. -5.9

Could I get inhibition for every one of these entries?
1. O=C1C2CC=C(Cl)CC2C(=O)N1CCc1c[nH]c2ccccc12 (centres undefined)
2. CC(C)(C)n1c(=O)[nH]c2c(c1=O)CCC2

Reply:
[0.6, 66.2]

Could I get inhibition for every one of these entries?
1. CCN(CC)c1ccc([C@H]2[C@@H]3CCCC[C@]3(O)CCN2CC(=O)NCc2ccco2)cc1
2. CC1(C)CC(NCc2ccccc2)CCO1 (centres undefined)
3. Cc1cc(O)c2/c(=N\N)c(-c3csc(C)n3)coc2c1
4. Cc1ccc(S(=O)(=O)NC(=O)NN2CCCCCC2)cc1

Reply:
1: -7.96; 2: 60.9; 3: -8.85; 4: 3.4

src = PubChem BioAssay
